Tested on: Rec-1
Assay: Anti-proliferative activity, 96 hours
Conditions: Homo sapiens, Rec1, 96 h
experimental.endpoint: IC50 (µM)
Please respond with the number in µM and leave the unit unwritten.

[in] Recall and state the measured IC50 for Nc1cccc2c1C(=O)N(C1CCC(=O)NC1=O)C2=O (centres unmarked) [Pomalidomide, reference compound] .
[out] 0.0448

[in] Recall and state the measured IC50 for O=C1CC[C@H](N2C(=O)c3cccc4c(Cc5ccc(CN6CCOCC6)cc5)ccc2c34)C(=O)N1 (single isomer, unassigned) [Compound 1] .
[out] 0.000353

###

Target: cereblon-NanoLuc fusion protein in 293T cells (Homo sapiens, UniProt Q96SW2)
Assay: In-cell cereblon competition (NanoBRET tracer displacement)
Conditions: 2 hours at 37° C.; read-out: IC50, 50% of the tracer displaced
experimental.endpoint: IC50 (nM)
Please respond with the number in nM and leave the unit unwritten.

[in] Recall and state the measured IC50 for O=C1CC[C@H](N2C(=O)c3cccc4c(Cc5ccc(CN6CCOCC6)cc5)ccc2c34)C(=O)N1 (single isomer, unassigned) .
[out] 0.4
